target: ovine COX-1 (Ovis aries); construct: purchased Cayman Chemicals (Ann Arbor, Mich.); test: COX-1 activity assay using purified enzyme; assay type: biochemical; conditions: purified enzyme; Not inhibit: 9′ at 20 μM, acetaminophen at 250 μM
Sequence (P05979 25-600): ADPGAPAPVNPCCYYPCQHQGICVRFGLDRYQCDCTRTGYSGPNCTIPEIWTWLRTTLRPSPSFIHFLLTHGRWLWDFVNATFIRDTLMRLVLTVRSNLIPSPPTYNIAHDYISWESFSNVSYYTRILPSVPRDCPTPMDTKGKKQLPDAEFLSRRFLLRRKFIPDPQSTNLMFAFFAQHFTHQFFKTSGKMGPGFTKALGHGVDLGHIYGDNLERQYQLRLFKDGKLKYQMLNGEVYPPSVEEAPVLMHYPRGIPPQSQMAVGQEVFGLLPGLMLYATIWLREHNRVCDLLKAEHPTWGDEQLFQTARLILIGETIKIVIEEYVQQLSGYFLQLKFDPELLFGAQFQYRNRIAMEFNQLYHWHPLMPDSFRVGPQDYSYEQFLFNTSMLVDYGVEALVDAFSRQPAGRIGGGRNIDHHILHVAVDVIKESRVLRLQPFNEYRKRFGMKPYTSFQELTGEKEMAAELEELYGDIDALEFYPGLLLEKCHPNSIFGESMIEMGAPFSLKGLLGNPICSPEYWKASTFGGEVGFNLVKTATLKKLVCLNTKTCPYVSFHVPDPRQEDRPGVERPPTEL

compound | experimental target | unit string | IC50
Cc1cc(O)cc2c1OC(C)(CCCC(C)CCCC(C)CCCC(C)C(=O)O)CC2 (stereo not shown) | ovine COX-1 (Ovis aries) | µM | 5

* * *

5-LOX (Homo sapiens, UniProt P09917) measurements of IC50, listed per entry.
Sequence (P09917 whole entry): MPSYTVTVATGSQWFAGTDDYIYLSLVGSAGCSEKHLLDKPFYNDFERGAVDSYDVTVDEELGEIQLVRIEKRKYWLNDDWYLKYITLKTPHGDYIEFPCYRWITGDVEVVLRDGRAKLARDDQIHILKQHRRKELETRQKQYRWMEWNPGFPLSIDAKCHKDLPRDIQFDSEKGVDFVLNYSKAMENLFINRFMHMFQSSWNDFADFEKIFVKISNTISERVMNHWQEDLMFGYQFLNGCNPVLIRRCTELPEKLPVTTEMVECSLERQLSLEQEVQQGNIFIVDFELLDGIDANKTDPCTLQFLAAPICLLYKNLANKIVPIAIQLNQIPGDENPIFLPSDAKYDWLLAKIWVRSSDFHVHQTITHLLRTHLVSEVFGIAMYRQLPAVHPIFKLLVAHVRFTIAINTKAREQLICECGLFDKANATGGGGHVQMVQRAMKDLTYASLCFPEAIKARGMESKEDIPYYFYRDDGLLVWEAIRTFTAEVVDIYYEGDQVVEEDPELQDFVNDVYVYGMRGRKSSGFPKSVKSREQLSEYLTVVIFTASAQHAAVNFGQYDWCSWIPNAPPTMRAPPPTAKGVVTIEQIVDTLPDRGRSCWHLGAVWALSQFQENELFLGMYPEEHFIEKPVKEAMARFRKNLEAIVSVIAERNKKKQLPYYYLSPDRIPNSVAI
assay endpoint: IC50

compound | obs value
Cc1c(O)cc2c(c1C)OC(C)(CCCC(C)CCCC(C)CCCC(C)C)CC2 (centres unmarked) | > 50 µM
Cc1cc(O)cc2c1OC(C)(CCCC(C)CCCC(C)CCCC(C)C)CC2 (centres unmarked) | > 50 µM

* * *

biological target: COX-2 (Homo sapiens, UniProt P35354); assay: COX-2 activity assay using purified enzyme; type: biochemical; parameters: purchased Cayman Chemicals (Ann Arbor, Mich.); settings: purified enzyme; Not inhibit: 9′ at 20 μM, acetaminophen at 250 μM
Sequence (P35354 18-604): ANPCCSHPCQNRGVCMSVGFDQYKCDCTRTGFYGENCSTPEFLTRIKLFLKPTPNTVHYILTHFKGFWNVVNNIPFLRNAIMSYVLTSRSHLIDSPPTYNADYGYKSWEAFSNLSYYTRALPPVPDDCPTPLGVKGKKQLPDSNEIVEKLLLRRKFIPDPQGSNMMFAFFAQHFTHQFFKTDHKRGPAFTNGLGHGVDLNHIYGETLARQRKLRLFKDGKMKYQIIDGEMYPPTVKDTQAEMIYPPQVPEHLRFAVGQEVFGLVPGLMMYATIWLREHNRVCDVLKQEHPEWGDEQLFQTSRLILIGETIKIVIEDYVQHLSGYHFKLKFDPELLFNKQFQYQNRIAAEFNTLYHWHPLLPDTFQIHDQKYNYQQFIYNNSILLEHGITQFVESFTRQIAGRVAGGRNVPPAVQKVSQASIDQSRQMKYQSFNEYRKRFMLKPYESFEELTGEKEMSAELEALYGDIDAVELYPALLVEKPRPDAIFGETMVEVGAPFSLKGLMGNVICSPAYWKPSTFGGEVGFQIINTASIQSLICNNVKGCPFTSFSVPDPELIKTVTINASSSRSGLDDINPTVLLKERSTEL
pIC50: −log10 of the molar value.

compound | pIC50
Cc1cc(O)cc2c1OC(C)(CCCC(C)CCCC(C)CCCC(C)C(=O)O)CC2 (stereo not shown) | 5.40
